- Target or test system: integrin alphaV beta3 (Homo sapiens, UniProt P06756;P06756;P05106 P06756:31-889,P06756:891-1048,P05106:27-788)
- Sequence (P06756 31-889, chain 1 of 3): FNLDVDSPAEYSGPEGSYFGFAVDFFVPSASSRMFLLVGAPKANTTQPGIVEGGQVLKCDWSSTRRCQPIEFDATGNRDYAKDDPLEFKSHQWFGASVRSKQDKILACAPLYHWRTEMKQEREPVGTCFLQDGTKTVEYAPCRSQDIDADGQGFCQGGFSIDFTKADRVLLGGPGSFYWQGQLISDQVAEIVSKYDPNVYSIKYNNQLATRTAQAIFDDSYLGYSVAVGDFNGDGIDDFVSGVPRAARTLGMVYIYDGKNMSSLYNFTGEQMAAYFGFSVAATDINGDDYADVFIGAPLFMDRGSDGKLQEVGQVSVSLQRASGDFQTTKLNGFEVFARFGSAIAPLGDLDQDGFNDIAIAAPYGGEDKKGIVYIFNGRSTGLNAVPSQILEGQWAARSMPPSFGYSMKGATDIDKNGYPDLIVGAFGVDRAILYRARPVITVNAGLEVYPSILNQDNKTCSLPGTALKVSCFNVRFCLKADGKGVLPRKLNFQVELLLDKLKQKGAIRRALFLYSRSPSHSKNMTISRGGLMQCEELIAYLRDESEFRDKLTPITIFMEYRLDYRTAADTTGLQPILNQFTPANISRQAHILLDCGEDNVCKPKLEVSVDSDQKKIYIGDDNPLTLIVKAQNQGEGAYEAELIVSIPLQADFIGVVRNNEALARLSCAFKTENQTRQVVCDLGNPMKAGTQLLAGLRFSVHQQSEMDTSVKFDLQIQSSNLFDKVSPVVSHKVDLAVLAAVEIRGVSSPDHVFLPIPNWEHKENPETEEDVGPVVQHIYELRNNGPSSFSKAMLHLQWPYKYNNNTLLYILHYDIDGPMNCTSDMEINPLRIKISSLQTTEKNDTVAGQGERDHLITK
- Sequence (P06756 891-1048, chain 2 of 3): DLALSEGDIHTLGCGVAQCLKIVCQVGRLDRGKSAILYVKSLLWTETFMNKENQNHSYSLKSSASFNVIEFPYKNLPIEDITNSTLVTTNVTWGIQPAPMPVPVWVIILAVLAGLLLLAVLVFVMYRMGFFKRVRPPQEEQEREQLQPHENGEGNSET
- Sequence (P05106 27-788, chain 3 of 3): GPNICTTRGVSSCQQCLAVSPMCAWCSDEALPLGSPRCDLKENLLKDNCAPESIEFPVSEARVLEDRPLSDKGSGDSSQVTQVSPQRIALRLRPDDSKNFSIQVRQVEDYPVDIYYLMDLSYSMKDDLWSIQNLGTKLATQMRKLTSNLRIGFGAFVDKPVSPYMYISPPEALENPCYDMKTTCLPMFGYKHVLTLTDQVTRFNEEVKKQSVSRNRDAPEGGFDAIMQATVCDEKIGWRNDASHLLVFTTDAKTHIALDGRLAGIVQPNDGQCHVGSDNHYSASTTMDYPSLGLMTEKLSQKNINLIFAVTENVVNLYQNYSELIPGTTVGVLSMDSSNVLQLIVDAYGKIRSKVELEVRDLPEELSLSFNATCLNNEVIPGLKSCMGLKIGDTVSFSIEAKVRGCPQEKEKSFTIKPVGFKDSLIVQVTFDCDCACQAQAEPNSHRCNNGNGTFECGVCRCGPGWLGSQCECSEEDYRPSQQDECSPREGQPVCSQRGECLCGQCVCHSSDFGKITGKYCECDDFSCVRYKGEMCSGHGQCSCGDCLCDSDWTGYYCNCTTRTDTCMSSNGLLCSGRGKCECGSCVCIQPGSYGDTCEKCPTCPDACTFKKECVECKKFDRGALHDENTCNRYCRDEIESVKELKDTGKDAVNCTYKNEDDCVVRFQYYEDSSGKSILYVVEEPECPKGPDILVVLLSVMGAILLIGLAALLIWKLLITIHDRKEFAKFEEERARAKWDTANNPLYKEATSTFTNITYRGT
- Assay notes: microtiter plate, streptavidin-AP; Mg2+, Ca2+, Mn2+, pH 7.5, 37 C
- Condition parameters: label: 5'-biotin
Readout name: pKd
Numbers only, as −log10 of the molar value.

Previously resolved entries follow.
17.2 (ssRNA, 2'-F C and U) RNA: GGGAGACAAGAAUAAACGCUCAAUUCUACGCUGUGAAGGGCUUAUAUGAGCGGAUUACCCUUCGACAGGAGGCUCACAACAGGC = 8.70
15.19 (ssRNA, 2'-F C and U) RNA: GGGAGACAAGAAUAAACGCUCAAUGUAGCCGCAUGUCGAGCAGCAAUUCCUGCCAUUGUAGGUUCGACAGGAGGCUCACAACAGGC = 6.11
17.11 (ssRNA, 2'-F C and U) RNA: GGGAGACAAGAAUAAACGCUCAAUUCUACGCUGUGAAGGGCUUAUAUGAGCGAAUUACCCUUCGACAGGAGGCUCACAACAGGC = 8.40

Consider now this further binder.
Challenge: Need pKd, item 15.4 (ssRNA, 2'-F C and U) RNA: GGGAGACAAGAAUAAACGCUCAAUGAUUUCAUGACUUAUGCCGCCGGCAUGACUUCAAUGACGUUCGACAGGAGGCUCACAACAGGC
Response given: 5.70

Measured values drawn from patent US20020150536 for this set.
